Tested on: EKVX NSCLC
ASSAY COMMENT: NCI tumour cell line growth inhibition, 48 h; in the data active = GI50 below about 0.43 µM; inactive = the rest
Classes used: Y (active), N (inactive)

{"columns": ["COMPOUND", "LABEL"],
 "data": [
  ["Cc1cc(OCc2n[nH]c(=S)n2/N=C/c2ccc(F)cc2)ccc1Cl", "N"],
  ["CCC[CH2][Sn]([CH2]CCC)([O]C(=O)Cc1ccc(F)cc1)[O]C(=O)Cc1ccc(F)cc1", "N"],
  ["CC(=O)Nc1ccc(-c2csc(Nc3ccc(-c4csc(-c5ccccc5)n4)cc3)n2)cc1", "N"],
  ["CCCCCCCCCCCCCCCCCCOP(=O)([O-])OC1CC[N+](C)(C)CC1", "N"],
  ["COc1cc(/C=C2\\CC3C4CCC5=CC(=O)CC[C@]5(C)C4CC[C@]3(C)C2=O)ccc1OCCCn1ccnc1 (some centres undefined)", "N"],
  ["c1cc(N2CCCC2)c2nc(-c3[nH]ncc3Nc3ncnc4[nH]ccc34)[nH]c2c1", "Y"],
  ["COc1cc(C(=O)/C=C/c2c(-c3cccs3)nc3sc(C)cn23)cc(OC)c1OC", "N"],
  ["CC(C)(C)N=Cc1ccccc1[O-].CC(C)(C)N=Cc1ccccc1[O-].[Co+2]", "N"],
  ["Nc1nc2c(c3cnccc13)C(c1cccc(Br)c1)Cc1cnccc1-2 (centres undefined)", "N"]
]}

====

Recorded TGI by entry
System: MALME-3M melanoma
ASSAY COMMENT: NCI tumour cell line growth inhibition, 48 h

{"columns": ["COMPOUND", "ASSAYED TARGET", "TGI"],
 "data": [
  ["CCCCC1=C(Br)C(=C(Br)Br)OC1=O", "MALME-3M melanoma", "5.31 µM"],
  ["O=C(c1ccccc1)N1C2C3CC(OCc4ccccc4)(OCc4ccccc4)C(O3)C21 (stereo not given)", "MALME-3M melanoma", "> 100 µM"],
  ["Cc1cc2c(c(C(N)=O)c1C)-c1cccc(Cl)c1C2=O", "MALME-3M melanoma", "> 100 µM"],
  ["CC12OC(=O)[C@@]3(O)CCC4C(C[C@H]5O[C@]56CC=CC(=O)[C@]46C)C45OC[C@H]6C(=O)O[C@@H]1C[C@@]6(C)[C@H](C4=O)C23O5 (stereo not given in full)", "MALME-3M melanoma", "5.72 µM"],
  ["O=C([O-])c1ccc2c(c1)-c1nc-2nc2[n-]c(nc3nc(nc4[n-]c(n1)c1ccc(C(=O)[O-])cc41)-c1ccc(C(=O)[O-])cc1-3)c1ccc(C(=O)[O-])cc21.[Gd+3].[K+]", "MALME-3M melanoma", "> 100 µM"],
  ["COc1cc2c(cc1O)N=C[C@@H]1C[C@@H](F)CN1C2=O", "MALME-3M melanoma", "2.88 µM"],
  ["CC[C@]12C=CCN3CC[C@]4(C(=C(C(=O)OC)C1)Nc1cc(OC)c(OC(C)=O)cc14)[C@@H]32", "MALME-3M melanoma", "16.1 µM"],
  ["CN(O)C(=O)c1ccccc1", "MALME-3M melanoma", "> 100 µM"],
  ["Cc1ncc([N+](=O)[O-])n1CC(O)Cn1ccnc1[N+](=O)[O-] (stereo not given)", "MALME-3M melanoma", "> 100 µM"],
  ["Ic1ccc2[nH]cc(SSc3c[nH]c4ccc(I)cc34)c2c1", "MALME-3M melanoma", "8.29 µM"]
]}

====

Test system: A498 renal
ASSAY COMMENT: NCI tumour cell line growth inhibition, 48 h
The reader will find reported TGI values listed item by item below.
MEASUREMENT KIND: TGI

{"columns": ["COMPOUND", "MEASUREMENT KIND", "REPORTED MEASUREMENT"],
 "data": [
  ["COc1nc(-c2cn(S(=O)(=O)c3ccc(C)cc3)c3ccc(Br)cc23)cc(C(F)(F)F)c1C#N", "TGI", "> 100 µM"],
  ["COc1cc(/C=C/C(=O)c2cc(OC)c(OC)c(OC)c2)ccc1Oc1nc2c(c(=O)n(C)c(=O)n2C)n1C", "TGI", "10.2 µM"],
  ["COc1c(CC(=O)c2ccccc2)c2ccccc2n1C(C)=O", "TGI", "> 100 µM"],
  ["COC(=O)[C@@H](Nc1ccccc1)[C@@]1(C(=O)OC)SC12c1ccccc1-c1ccccc12", "TGI", "> 100 µM"],
  ["COc1ccc2c(c1OC)CN1CCc3cc4c(cc3C1C2)OCO4 (configuration not stated)", "TGI", "> 100 µM"],
  ["Cn1cc(C2=C(Sc3ccccc3)C(=O)NC2=O)c2ccccc21", "TGI", "> 25 µM"],
  ["CC1=C(SCCC(=O)OCC(=O)NCCC[Te]c2ccccc2)C(=O)c2ccccc2C1=O", "TGI", "6.16 µM"],
  ["O=C1NC(=O)C(C(=O)C(=O)Nc2cccc(C(F)(F)F)c2)C(=O)N1", "TGI", "> 100 µM"],
  ["COc1c(Br)cc(Br)c(OC)c1-c1ccc[nH]1", "TGI", "> 100 µM"],
  ["O=C(Nc1ccn(C2CC(O)C(CO)O2)c(=O)n1)c1ccccc1 (configuration not stated)", "TGI", "> 100 µM"],
  ["CN(CCNC(=O)c1[nH]nc2c1Cc1ccccc1-2)CCNC(=O)c1[nH]nc2c1Cc1ccccc1-2", "TGI", "36.8 µM"],
  ["O=C1c2ccccc2C(=O)N1C/C=N/NS(=O)(=O)c1ccc2ccccc2c1", "TGI", "> 100 µM"]
]}

====

Tested on: SF-268 CNS
ASSAY COMMENT: NCI tumour cell line growth inhibition, 48 h; in the data active means GI50 below about 0.43 µM; inactive means the rest
Classes used: active, inactive

{"columns": ["MOLECULE", "LABEL"],
 "data": [
  ["COc1cccc2c1C(CO)N1C(C#N)C3CC(C(=O)O)C(C1C2)N3C (stereo not given)", "active"],
  ["COc1cc(OC)cc(Oc2nc3cc(N)cc(N)c3nc2-c2ccccc2)c1", "inactive"],
  ["CC(=O)OCC1OC(OC2=C(CC=C(C)C)C(=O)c3ccccc3C2=O)C(OC(C)=O)C(OC(C)=O)C1OC(C)=O (stereo not given)", "inactive"],
  ["COc1cc(/C=C2\\CC3C4CCC5=CC(=O)CC[C@]5(C)C4CC[C@]3(C)C2=O)ccc1OCCCn1ccnc1 (stereo not given in full)", "inactive"],
  ["O=C(OC(CNc1c(C(=O)c2ccccc2)c(=O)n(Cc2ccccc2)c(=O)n1Cc1ccccc1)CN1CCOCC1)c1ccccc1 (stereo not given)", "inactive"],
  ["CC#Cc1nc2ccccc2c(=O)[nH]1", "inactive"],
  ["Cc1cc(C)c(CNC(=O)c2cc(-c3ccc(CN4CCOCC4)cc3)cc3c2cnn3C2CCCC2)c(=O)[nH]1", "inactive"],
  ["O=c1c(O)c(O)c1=O.[NH2-].[NH2-].[NH2-].[NH2-].[NH2-].[Ru+5]", "inactive"],
  ["COc1cc2c3c(n(CCCN=[N+]=[N-])c(=O)c2cc1OC)-c1ccc(C#N)cc1C3=O", "inactive"],
  ["COc1ccc2c(CCC(c3ccccc3)c3ccccc3)c3[n+](cc2c1OC)CCc1cc2c(cc1-3)OCO2", "inactive"],
  ["CC(=O)Nc1ccc(-c2csc(Nc3ccc(-c4csc(-c5ccccc5)n4)cc3)n2)cc1", "inactive"],
  ["O=C1OCC2=C1C(c1cccc(F)c1)c1cc3c(cc1N2CCO)CCC3 (stereo not given)", "active"],
  ["C=C(C)[C@@H]1CC[C@]2(CNCCO)CC[C@]3(C)[C@H](CC[C@@H]4[C@@]5(C)CCC(N)[C@@](C)(CO)[C@@H]5CC[C@]43C)[C@@H]12 (stereo not given in full)", "inactive"],
  ["Cc1c(NC(=O)c2cc(C(N)=O)nc3cc(F)ccc23)c(C(F)(F)F)nn1Cc1ccc(C#N)cc1", "inactive"],
  ["CCCCCCCCCCCCCCCCCCOP(=O)([O-])OC1CC[N+](C)(C)CC1", "inactive"]
]}

====

Quick reference for TGI among some compounds
Tested on: MDA-N
ASSAY COMMENT: NCI tumour cell line growth inhibition, 48 h
MEASUREMENT KIND: TGI

{"columns": ["COMPOUND", "REPORTED MEASUREMENT"],
 "data": [
  ["C[C@]12CC(c3ccccc3O1)C(C(N)=O)C(=O)N2 (stereo not given in full)", "> 100 µM"],
  ["Cc1ccc(S(=O)(=O)NC(CCC(=O)NN)C(=O)NN)cc1 (stereo not given)", "> 100 µM"],
  ["Cc1ccccc1N=Nc1cc(C)c(N=Nc2c(O)ccc3ccccc23)cc1C", "> 100 µM"],
  ["N#CCCC1(CCC#N)CCc2ccccc2C1=O", "> 100 µM"],
  ["CC12CCC(C(=O)n3c1nc1ccccc13)C(C)(C)O2 (stereo not given)", "> 100 µM"],
  ["COC1(OC)C[C@H](C)[C@@]23O[C@]24C2=CC(=O)C=CC2=N[C@H]3C#C/C=C\\C#C[C@]14O", "2.28 µM"],
  ["CN(CCNC(=O)c1[nH]nc2c1Cc1ccccc1-2)CCNC(=O)c1[nH]nc2c1Cc1ccccc1-2", "31.2 µM"],
  ["CCOC(=O)[C@@H]1C2C(=C[C@H]3[C@H]1C(=O)N1CCCC[C@H]31)CCCN2C(=O)OCc1ccccc1 (stereo not given in full)", "> 100 µM"],
  ["O=C1C=CC(=O)c2c(O)c(CO)c(CO)c(O)c21", "0.736 µM"],
  ["COc1ccccc1N1C(=O)C2C3c4ccccc4C(OC(C)=O)(c4ccccc43)C2C1=O (stereo not given)", "> 100 µM"]
]}
